- Tested on: NCI/ADR-RES ovarian
- MEASUREMENT_DESCRIPTION: NCI tumour cell line growth inhibition, 48 h

| COMPOUND | CENSORING_SIGN | TGI [µM] |
| --- | --- | --- |
| CO/C(=N\N=C(/C)C(F)(F)F)c1ccncc1 | > | 100 |
| Cn1ncc2c(Nc3ccc(Br)cc3)nc(Nc3ccc(Br)cc3)nc21 | = | 16.1 |
| C=C1C(=O)O[C@H]2[C@H]1CC/C(COC(=O)OCCCCCOC(=O)OC/C1=C/CC[C@@]3(C)O[C@H]3[C@H]3OC(=O)C(=C)[C@@H]3CC1)=C\CC[C@@]1(C)O[C@@H]21 | = | 9.58 |
| COc1ccc(-c2cc3cccc(OC)c3c(=O)o2)cc1OC | > | 100 |
| C1=C2SSC3=CC=C(SSc4ccc(s4)SSC4=CC=C(SSC(=C1)S2)S4)S3 | > | 100 |
| Nc1cc2c(cc1[N+](=O)[O-])[nH]c1c(-c3ccccc3)nccc12 | = | 41.4 |
| O=C1c2ccn(CCCCN3CCOCC3)c2C(=O)c2c1c(O)c1ccccc1c2O | = | 23.8 |
| COc1c2cc(C(C)(C)C)cc1CSCc1cc(C(C)(C)C)cc(c1OC)CCCCC2 | > | 50 |
| COC(=O)Cc1c([C@@H]2Nc3ccccc3[C@H]2CC(=O)OC)[nH]c2ccccc12 | > | 100 |
| O=C1C(=O)c2ccc(Br)cc2-c2cc(Br)ccc21 | = | 8.12 |
| COc1ccc2nc3ccc(OC)cc3c(S(=O)Cc3ccc([N+](=O)[O-])cc3)c2c1 (stereo not given) | = | 62.3 |
| COc1ccccc1-c1cc2c3c(nc4ccccc42)C(=O)c2cccnc2-c3n1 | = | 32.6 |
| Cc1c(Cl)ccc2c1NC(=O)C2(O)CC(=O)c1ccc(Cl)cc1Cl (stereo not given) | > | 50 |
| ClCCN(CCCl)Cc1ccc(Nc2ccnc3cc(Cl)ccc23)cc1 | = | 7.36 |
| COc1ccc(C2CC(c3cc4c(C)c(C(=O)c5ccccc5)oc4cc3O)=Nc3ccccc3S2)cc1OC (stereo not given) | > | 100 |
